Value source: paper PMC12445222

Substrate: ClCCCl
Test: ITC initial rates, steady-state fit with substrate inhibition
Type: biochemical, Xanthobacter autotrophicus
Conditions: 100 mM glycine buffer, pH 8.6, 15 °C
REPORTED PROPERTY: kcat
Remember to follow the number with its unit.

Ask: For haloalkane dehalogenase (DhlA) (Xanthobacter autotrophicus; L262V) (protein) MINAIRTPDQRFSNLDQYPFSPNYLDDLPGYPGLRAHYLDEGNSDAEDVFLCLHGEPTWSYLYRKMIPVFAESGARVIAPDFFGFGKSDKPVDEEDYTFEFHRNFLLALIERLDLRNITLVVQDWGGFLGLTLPMADPSRFKRLIIMNACLMTDPVTQPAFSAFVTQPADGFTAWKYDLVTPSDLRLDQFMKRWAPTLTEAEASAYAAPFPDTSYQAGVRKFPKMVAQRDQACIDISTEAISFWQNDWNGQTFMAIGMKDKVLGPDVMYPMKALINGCPEPLEIADAGHFVQEFGEQVAREALKHFAETE , what is its reported kcat?
Result: 0.25 s⁻¹
